# TGT: UniProt P35368
# Sequence (P35368 1-520): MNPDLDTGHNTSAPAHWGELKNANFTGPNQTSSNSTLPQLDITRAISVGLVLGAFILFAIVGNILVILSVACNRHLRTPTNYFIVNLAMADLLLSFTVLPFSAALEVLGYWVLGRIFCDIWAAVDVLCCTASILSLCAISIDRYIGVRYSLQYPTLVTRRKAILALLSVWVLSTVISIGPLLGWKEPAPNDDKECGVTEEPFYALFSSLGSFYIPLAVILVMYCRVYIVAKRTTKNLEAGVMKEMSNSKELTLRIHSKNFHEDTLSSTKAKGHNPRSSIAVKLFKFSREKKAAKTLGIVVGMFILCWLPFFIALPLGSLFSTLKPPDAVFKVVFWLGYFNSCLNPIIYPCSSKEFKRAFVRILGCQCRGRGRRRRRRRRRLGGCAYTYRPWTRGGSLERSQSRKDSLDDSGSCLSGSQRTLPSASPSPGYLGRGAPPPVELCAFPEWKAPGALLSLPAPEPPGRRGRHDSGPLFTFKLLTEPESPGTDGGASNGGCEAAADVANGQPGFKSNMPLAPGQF
# ASSAY_COMMENT: Radioligand binding, adrenergic α1B (Protocol Group B)
# Set-up: purchased Milipore (Millipore)
# MEASUREMENT_CONDITIONS: 0.3 μM compound; Protocol Group B; read-out: Percentage inhibition of ligand binding, Adrenergic α1B (0.3 μM)
Cut-off 50% on inhibition at 0.3 µM, inclusive. At or above means 1 (yes); below means 0 (no).

Here are 10 compounds together with their reported answers.
| COMPOUND | CATEGORY_LABEL |
| --- | --- |
| Cc1cc2c3c(n(CC(O)c4ccncc4)c2cc1Cl)CCN1CCCC31 (stereo not shown) | 1 (yes) |
| Cc1ccc2c(c1)c1c(n2CC(C)(O)c2cccnc2)CC(CO)N(C)C1 (single isomer, unassigned) [15a] | 0 (no) |
| CN1CCc2c(c3c(Cl)ccc(Cl)c3n2CC(O)c2cccnc2)C1 (stereo not shown) | 0 (no) |
| Cc1ccc2c(c1)c1c(n2CC(C)(O)c2cccnc2)CC2CCCN2C1 (single isomer, unassigned) [38b] | 0 (no) |
| Cc1cc(F)c2c(c1)c1c(n2CC(O)c2ccncc2)CCN2CCCC12 (single isomer, unassigned) [137a] | 1 (yes) |
| Cc1ccc2c(c1)c1c(n2CC(O)c2ccc(C(=O)N3CCCC3)nc2)CCN(C)C1 (stereo not shown) | 0 (no) |
| Cc1ccc2c(c1)c1c(n2CC(OCC2CCC2)c2ccncc2)CCN(C)C1 (single isomer, unassigned) [59a] | 1 (yes) |
| CC(O)(Cn1c2c(c3cc(C(F)(F)F)ccc31)CN1CCCC1C2)c1cccnc1 (single isomer, unassigned) [85a] | 0 (no) |
| CC(O)(Cn1c2c(c3cc(Cl)cc(F)c31)C1CCCN1CC2)c1ccncc1 (single isomer, unassigned) [52a] | 1 (yes) |
| Cc1ccc2c(c1)c1c(n2CC(C)(O)c2cnc3ccccc3c2)CCN(C)C1 (stereo not shown) [compound 32] | 0 (no) |

Does Cc1ccc2c(c1)c1c(n2CC(O)c2cccnc2)C(F)(F)CN(C)C1 (stereo not shown) have a reported inhibition at 0.3 µM of at least 50%?
0 (no)

What would you report for Cc1ccc2c(c1)c1c(n2CC(C)(O)c2cccnc2)CC2CCC1N2C (single isomer, unassigned) [101a] ?
0 (no)

What would you report for CC(O)(Cn1c2c(c3cc(Cl)cc(F)c31)CN1CCCC1C2)c1cccnc1 (single isomer, unassigned) [63c] ?
0 (no)

What would you report for CN1CCc2c(c3cccc(Cl)c3n2CC(O)c2cccnc2)C1 (stereo not shown) ?
0 (no)

What would you report for Cc1ccc2c(c1)c1c(n2CC(C)(O)c2ccc(N)nc2)CCN(C)C1 (stereo not shown) ?
0 (no)

Reference source for all entries: patent US20150315188A1
